Data origin: patent US7402696B2

# Test target: ACC (acetyl CoA carboxylase) purified from liver of male SD rat (Rattus norvegicus, UniProt P11497)
# Construct: applied to a monomeric avidin sepharose column, and washed with buffer B. The ACC was eluted with buffer B containing 2 mM d-biotin; from tissue; host or cells: liver of male SD rat
# Protocol summary: Measurement of ACC inhibition activity ([14C]-NaHCO3 incorporation)
# Type: biochemical
# Condition label: ACC inhibition activity rate at 1 μM; Table 4-IV, Mode 4 benzenediamine compounds (numbers = x-IV); read-out: ACC Inhibition (%)
Provide the reported inhibition at 1 µM of each item.
Output spec: scalar in %, unitless text.

inhibition at 1 µM recorded for this compound, CC(C)CCN(C)c1ccc(-c2noc(-c3cccc(C(=O)NS(=O)(=O)c4ccccc4)c3)n2)cc1NC(=O)c1cccc(C(F)(F)F)c1 , is 99

# inhibition at 1 µM (compound: CC(C)CCN(C)c1ccc(C(=O)NC(CC(=O)NS(=O)(=O)c2ccccc2)c2ccccc2)cc1N(C)Cc1ccccc1 (stereo not shown) ) is 90

inhibition at 1 µM for CC(C)CCN(C)c1ccc(-c2noc(-c3cccc(C(=O)NS(=O)(=O)c4ccccc4)c3)n2)cc1NCc1cccc(C(=O)O)c1 is 72

# inhibition at 1 µM (compound: Cc1ccccc1S(=O)(=O)NC(=O)CC(NC(=O)c1ccc(N(C)CCC(C)C)c(NCC2CCCC2)c1)C1CCCCC1 (stereo not shown) ) is 91

Query CC(C)CCN(C)c1ccc(-c2noc(-c3cccc(C(=O)NS(=O)(=O)c4ccccc4)c3)n2)cc1NC(C)c1ccccc1 (stereo not shown) yields inhibition at 1 µM of 100

According to the records, this compound CC(C)CCN(C)c1ccc(-c2noc(-c3cccc(C(=O)NS(=O)(=O)c4ccccc4)c3)n2)cc1NCc1ccccc1 displays inhibition at 1 µM of 100

Measured inhibition at 1 µM, CC(C)CCN(C)c1ccc(-c2noc(-c3cccc(C(=O)NS(=O)(=O)c4ccccc4)c3)n2)cc1NCc1ccc(OCCO)cc1 : 97

Notebook: CC(C)CCN(C)c1ccc(-c2noc(-c3cccc(C(=O)NS(=O)(=O)c4ccccc4)c3)n2)cc1NCC1CCCCC1 , inhibition at 1 µM read as 100

Lab book: inhibition at 1 µM of CC(C)CCN(C)c1ccc(-c2noc(-c3cccc(C(=O)NS(=O)(=O)c4cccc(C(=O)O)c4)c3)n2)cc1N(C)Cc1ccc(OCCO)cc1 noted as 100

The compound listed as COc1cccc(CNc2cc(-c3noc(-c4cccc(C(=O)NS(=O)(=O)c5ccccc5)c4)n3)ccc2N(C)CCC(C)C)c1 has a reported inhibition at 1 µM of 100

Lab note: CC(C)CCN(C)c1ccc(C(=O)NC(CC(=O)NS(=O)(=O)c2ccccc2)C2CCCCC2)cc1NCc1nccs1 (stereo not shown) gave inhibition at 1 µM of 49

# compound CC(C)CCN(C)c1ccc(-c2noc(-c3cccc(C(=O)NS(=O)(=O)c4ccccc4)c3)n2)cc1NC(=O)C1CCCCC1 ; its inhibition at 1 µM = 85

response.value for COC(=O)c1cccc(S(=O)(=O)NC(=O)c2cccc(-c3nc(-c4ccc(N(C)CCC(C)C)c(NCc5ccc(OCCO)cc5)c4)no3)c2)c1 (field: inhibition at 1 µM) = 99
